Entry source: patent US6391505B1

Reported Solubility/THF [% by weight] by item:
protocol_summary: Solubility of organic acceptor compound in tetrahydrofuran (solvent of coating solution)
Type: physicochemical
measurement_context: THF; organic acceptor; Table 2
Express your answer in % by weight, writing the number without its unit.

Prompt: I would be grateful if you could share the reported Solubility/THF [% by weight] for CC(C)(C)C1=CC(=C2C=C(C(C)(C)C)C(=O)C(C(C)(C)C)=C2)C=C(C(C)(C)C)C1=O [AC-2] .
Response: 3

Prompt: I would be grateful if you could share the reported Solubility/THF [% by weight] for O=C1NC(=O)c2ccccc21 [AC-4] .
Response: 3

Prompt: I would be grateful if you could share the reported Solubility/THF [% by weight] for O=C1c2ccc3c4c(ccc(c24)C(=O)N1C1CCCCC1)C(=O)N(C1CCCCC1)C3=O [AC-3] .
Response: 1

Prompt: I would be grateful if you could share the reported Solubility/THF [% by weight] for O=C1C(Oc2ccccc2)=C(Oc2ccccc2)C(=O)c2ccccc21 [AC-1] .
Response: 3

* * *

protocol_summary: Solubility of organic acceptor compound in tetrahydrofuran (solvent of coating solution)
Assay type: physicochemical
measurement_context: Table 5; in THF
readout_kind: Solubility/THF [% by weight] of organic acceptor

Previously resolved entries follow.
Prompt: I would be grateful if you could share the reported Solubility/THF [% by weight] of organic acceptor for CC(C)(C)C1=CC(=C2C=C(C(C)(C)C)C(=O)C(C(C)(C)C)=C2)C=C(C(C)(C)C)C1=O .
Response: 3 % by weight

Prompt: I would be grateful if you could share the reported Solubility/THF [% by weight] of organic acceptor for O=C1c2ccc3c4c(ccc(c24)C(=O)N1C1CCCCC1)C(=O)N(C1CCCCC1)C3=O .
Response: 1 % by weight

***
Prompt: I would be grateful if you could share the reported Solubility/THF [% by weight] of organic acceptor for O=C1NC(=O)c2ccccc21 .
Response: 3 % by weight

Prompt: I would be grateful if you could share the reported Solubility/THF [% by weight] of organic acceptor for O=C1C(Oc2ccccc2)=C(Oc2ccccc2)C(=O)c2ccccc21 .
Response: 3 % by weight

* * *

protocol_summary: Reduction potential of organic acceptor compound by cyclic voltammetry
Format: physicochemical
measurement_context: Table 5; organic acceptor added when producing the phthalocyanine crystal; reference electrode (Ag+/Ag)
Reported Reduction potential [V] of organic acceptor by item:
Express your answer in V, writing the number without its unit.

Prompt: I would be grateful if you could share the reported Reduction potential [V] of organic acceptor for O=C1c2ccc3c4c(ccc(c24)C(=O)N1C1CCCCC1)C(=O)N(C1CCCCC1)C3=O [AC-3] .
Response: −0.85

Prompt: I would be grateful if you could share the reported Reduction potential [V] of organic acceptor for O=C1NC(=O)c2ccccc21 [AC-4] .
Response: −1.28

Prompt: I would be grateful if you could share the reported Reduction potential [V] of organic acceptor for CC(C)(C)C1=CC(=C2C=C(C(C)(C)C)C(=O)C(C(C)(C)C)=C2)C=C(C(C)(C)C)C1=O [AC-2] .
Response: −0.85

// next entry
Prompt: I would be grateful if you could share the reported Reduction potential [V] of organic acceptor for O=C1C(Oc2ccccc2)=C(Oc2ccccc2)C(=O)c2ccccc21 [AC-1] .
Response: −0.95
